tested on: K12877-001-R-J1-PDC complex spheroid viability; assay: Anticancer human tumor K12877-001-R-J1-PDC patient-derived lung adenocarcinoma cell line growth inhibition [RAS]; details: curve of first compound; second compound 0.0316 µM;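 also: spheroids exposed to agents for one week before readout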
valueType: IC50 (nM)

I = CC1(C)CCC(Nc2ncc(C(F)(F)F)c(-c3c[nH]c4c(P(C)(C)=O)c(C#N)ccc34)n2)CN1 (stereo not drawn) + C#Cc1c(F)ccc2cc(O)cc(-c3ncc4c(N5CC6CCC(C5)N6)nc(OCC56CCCN5CC(F)C6)nc4c3F)c12
II = CC(C)n1nc(-c2ccc3oc(N)nc3c2)c2c(N)ncnc21 + C#Cc1c(F)ccc2cc(O)cc(-c3ncc4c(N5CC6CCC(C5)N6)nc(OCC56CCCN5CC(F)C6)nc4c3F)c12
Exercise: Sorting by IC50 in descending order, would I or II appear first? State the label of the item chosen.
Key: I
(I: 55.5 nM, II: 25.3 nM)
